- Tested System: Bromodomain-containing protein 4 (Homo sapiens, UniProt O60885)
- Test Name: Inhibition of BRD4 BD1 (unknown origin)
Attribute Measured: IC50 (nM)
Answers are plain numbers, in nM.

Name the recorded IC50 of `Cc1sc2c(c1C)C(c1ccc(Cl)cc1)=N[C@@H](CC(=O)Nc1ccc(C(=O)Nc3ccccc3N)cc1)c1nnc(C)n1-2` , assay system Bromodomain-containing protein 4 (Homo sapiens, UniProt O60885).
729

* * *

- Tested System: Histone deacetylase 2 (Homo sapiens, UniProt Q92769)
- Sequence (Q92769 whole entry, the tested form may be a part): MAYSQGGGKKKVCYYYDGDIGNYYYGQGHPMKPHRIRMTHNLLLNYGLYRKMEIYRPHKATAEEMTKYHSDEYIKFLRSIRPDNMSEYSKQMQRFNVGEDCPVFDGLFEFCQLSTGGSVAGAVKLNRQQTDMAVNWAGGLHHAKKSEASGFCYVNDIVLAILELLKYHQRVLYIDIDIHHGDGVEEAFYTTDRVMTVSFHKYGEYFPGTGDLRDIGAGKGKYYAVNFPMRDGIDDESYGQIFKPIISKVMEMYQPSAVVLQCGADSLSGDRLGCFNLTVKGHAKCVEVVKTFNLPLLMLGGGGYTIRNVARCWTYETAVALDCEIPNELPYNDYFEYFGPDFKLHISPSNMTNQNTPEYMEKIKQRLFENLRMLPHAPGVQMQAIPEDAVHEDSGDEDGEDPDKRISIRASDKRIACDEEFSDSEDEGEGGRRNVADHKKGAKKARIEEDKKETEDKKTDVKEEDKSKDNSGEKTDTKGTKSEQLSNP
- Test Name: Inhibition of HDAC2 (unknown origin)
I'd appreciate it if you could supply pIC50 values for the items below.
Numbers only, as −log10 of the molar value.

Some solved cases for reference:
> print(dat)
                            compound.string  attribute.measured  readout.value
1  CN1c2ccc(NCc3ccc(C(=O)Nc4ccccc4N)cc3)cc2C(=O)N2CCc3c([nH]c4ccccc34)[C@H]21               pIC50           5.20
2  COc1ccc2[nH]c3c(c2c1)CCN1C(=O)c2cc(NCc4ccc(C(=O)Nc5ccccc5N)cc4)ccc2N(C)[C@H]31               pIC50           5.03
3  CN1c2ccc(NCc3ccc(C(=O)Nc4ccccc4N)cc3)cc2C(=O)N2CCc3c([nH]c4ccc(O)cc34)[C@H]21               pIC50           5.67

Name the recorded pIC50 of the item `COc1cc2c(cc1OCc1ccc(C(=O)Nc3ccccc3N)cc1)CC[C@@H]1[C@H]3CC[C@@H](O)[C@]3(C)CC[C@@H]21` in your answer.
7.22

* * *

- Tested System: Histone deacetylase 2 (Homo sapiens, UniProt Q92769)
- Test Name: Inhibition of full length C-terminal FLAG-tagged human recombinant HDAC2 (1 to 488 residues) expressed in Sf9 cells using fluorogenic Boc-Lys(Ac)-AMC as substrate incubated for 90 mins by Synergy H1 plate reader analysis
Attribute Measured: pIC50
Answers are plain numbers, as −log10 of the molar value.

Name the recorded pIC50 of the item `Nc1ccccc1NC(=O)c1ccc(NC(=O)Cc2ccc(N3Cc4ccc(O)cc4OC3=O)cc2)cc1` in your answer.
5.96

* * *

- Test system: MGC-803
- Test Name: Antiproliferative activity against human MGC-803 cells assessed as inhibition of cell growth
- Format: functional, cell-based
Attribute Measured: pIC50
Answers are plain numbers, as −log10 of the molar value.

Name the recorded pIC50 of the item `COc1ccc(CN(C(=O)Cc2ccc(C(=O)Nc3ccccc3N)cc2)c2cc(OC)c(OC)c(OC)c2)cc1O` in your answer.
7.52

* * *

- Tested System: Tubulin
- Test Name: Inhibition of tubulin polymerization (unknown origin)
Attribute Measured: pIC50
Answers are plain numbers, as −log10 of the molar value.

Name the recorded pIC50 of the item `COc1ccc(CN(C(=O)Cc2ccc(C(=O)Nc3ccccc3N)cc2)c2cc(OC)c(OC)c(OC)c2)cc1O` in your answer.
5.44

* * *

- Tested System: Histone deacetylase 1 (Homo sapiens, UniProt Q13547)
- Sequence (Q13547 whole entry, the tested form may be a part): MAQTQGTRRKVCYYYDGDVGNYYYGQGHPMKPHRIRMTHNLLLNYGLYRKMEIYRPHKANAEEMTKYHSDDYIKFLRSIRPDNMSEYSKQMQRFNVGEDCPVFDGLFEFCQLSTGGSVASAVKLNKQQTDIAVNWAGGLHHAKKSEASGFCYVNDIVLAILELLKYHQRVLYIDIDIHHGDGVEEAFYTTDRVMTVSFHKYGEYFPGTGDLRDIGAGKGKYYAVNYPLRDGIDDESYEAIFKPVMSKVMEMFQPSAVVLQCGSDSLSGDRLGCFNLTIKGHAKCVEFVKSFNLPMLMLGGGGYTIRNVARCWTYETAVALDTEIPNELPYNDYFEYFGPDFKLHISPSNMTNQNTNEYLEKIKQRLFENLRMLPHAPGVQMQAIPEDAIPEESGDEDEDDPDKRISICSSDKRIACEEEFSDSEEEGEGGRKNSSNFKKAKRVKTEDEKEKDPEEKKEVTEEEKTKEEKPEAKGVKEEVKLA
- Test Name: Inhibition of full length C-terminal his6-tagged human recombinant HDAC1 (1 to 482 residues) expressed in Sf9 cells using fluorogenic Boc-Lys(Ac)-AMC as substrate incubated for 90 mins by Synergy H1 plate reader analysis
Attribute Measured: IC50 (nM)
Answers are plain numbers, in nM.

Name the recorded IC50 of the item `Nc1ccccc1NC(=O)c1ccc(NC(=O)Cc2ccc(N3Cc4ccc(O)cc4OC3=O)cc2)cc1` in your answer.
200

* * *

- Tested System: UniProt:Q92769
- Test Name: Inhibition of HDAC2 in human HeLa nuclear extract using Boc-Lys(Ac)-AMC or Boc-Lys(Tfa)-AMC as substrate preincubated for 5 mins followed by substrate addition and measured after 30 mins by fluorescence assay
- Type: cell-free
Attribute Measured: IC50 (nM)
One number for each entry, in nM.

Some solved cases for reference:
> print(dat)
                            compound.string  unit  readout.value
1  Nc1ccccc1NC(=O)CCCCOc1no[n+]([O-])c1S(=O)(=O)c1ccccc1    nM           1460
2  Nc1ccccc1NC(=O)CCCCCOc1no[n+]([O-])c1S(=O)(=O)c1ccccc1    nM           1140

Turning now to a further molecule:
Name the recorded IC50 of `Nc1ccccc1NC(=O)CCCCCCCOc1no[n+]([O-])c1S(=O)(=O)c1ccccc1` , assay system UniProt:Q92769.
1200

* * *

- Tested System: Histone deacetylase 3 (Homo sapiens)
- Sequence (O15379 whole entry, the tested form may be a part): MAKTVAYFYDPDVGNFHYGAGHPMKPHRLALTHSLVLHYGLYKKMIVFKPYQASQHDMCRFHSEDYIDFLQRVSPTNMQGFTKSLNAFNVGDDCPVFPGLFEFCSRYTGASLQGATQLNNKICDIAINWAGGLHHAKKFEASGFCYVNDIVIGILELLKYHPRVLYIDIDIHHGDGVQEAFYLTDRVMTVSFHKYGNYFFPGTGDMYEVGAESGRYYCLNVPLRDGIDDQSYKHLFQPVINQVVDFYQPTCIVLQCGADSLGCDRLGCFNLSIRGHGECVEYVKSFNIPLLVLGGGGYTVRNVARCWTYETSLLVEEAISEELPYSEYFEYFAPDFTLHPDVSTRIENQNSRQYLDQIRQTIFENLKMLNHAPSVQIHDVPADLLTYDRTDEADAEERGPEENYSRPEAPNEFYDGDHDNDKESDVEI
- Test Name: Inhibition of C-terminl his-tagged human recombinant HDAC3 (1 to 428 residues) expressed in Sf9 cells using fluorogenic Boc-Lys(Ac)-AMC as substrate incubated for 90 mins by Synergy H1 plate reader analysis
Attribute Measured: pIC50
Give bare numbers, as −log10 of the molar value.

Name the recorded pIC50 of the item `Nc1ccccc1NC(=O)c1ccc(NC(=O)Cc2ccc(N3Cc4ccc(O)cc4OC3=O)cc2)cc1` in your answer.
6.22

* * *

I'd appreciate it if you could supply pIC50 values for the items below.
- Tested System: Histone deacetylase 1 (Homo sapiens, UniProt Q13547)
- Test Name: Inhibition of HDAC1 (unknown origin)
Numbers only, as −log10 of the molar value.

> print(dat)
                            compound.string  attribute.measured  readout.value
1  COc1ccc2[nH]c3c(c2c1)CCN1C(=O)c2cc(NCc4ccc(C(=O)Nc5ccccc5N)cc4)ccc2N(C)[C@H]31               pIC50           5.58

Parameters: items (list). Returns: pIC50 for each item.
1. CN1c2ccc(NCc3ccc(C(=O)Nc4ccccc4N)cc3)cc2C(=O)N2CCc3c([nH]c4ccccc34)[C@H]21
2. CN1c2ccc(NCc3ccc(C(=O)Nc4ccccc4N)cc3)cc2C(=O)N2CCc3c([nH]c4ccc(O)cc34)[C@H]21
3. COc1ccc(CN(C(=O)Cc2ccc(C(=O)Nc3ccccc3N)cc2)c2cc(OC)c(OC)c(OC)c2)cc1O

1. 5.82
2. 6.40
3. 6.28

* * *

- Tested on: A549
- Test Name: Antiproliferative activity against human A549 cells assessed as inhibition of cell growth incubated for 48 hrs by CCK-8 assay
- Type: functional, cell-based
- Condition Parameters: A549, 48 h
Attribute Measured: IC50 (nM)
Answers are plain numbers, in nM.

Name the recorded IC50 of the item `Cn1cc(-c2ccc(S(=O)(=O)n3ccc(/C=C/C(=O)Nc4ccccc4N)c3)cc2)cn1` in your answer.
7.8

* * *

- Test system: K562
- Test Name: Antiproliferative activity against human K562 cells assessed as inhibition of cell growth by MTT assay
- Assay type: functional, cell-based
Attribute Measured: IC50 (µM)
Answers are plain numbers, in µM.

Name the recorded IC50 of the item `CCN1CCN(c2cc(Nc3ncc(C(=O)Nc4ccc(F)cc4N)s3)ncn2)CC1` in your answer.
2.62

* * *

- Tested System: Protein deacetylase HDAC6 (Homo sapiens)
- Sequence (Q9UBN7 whole entry): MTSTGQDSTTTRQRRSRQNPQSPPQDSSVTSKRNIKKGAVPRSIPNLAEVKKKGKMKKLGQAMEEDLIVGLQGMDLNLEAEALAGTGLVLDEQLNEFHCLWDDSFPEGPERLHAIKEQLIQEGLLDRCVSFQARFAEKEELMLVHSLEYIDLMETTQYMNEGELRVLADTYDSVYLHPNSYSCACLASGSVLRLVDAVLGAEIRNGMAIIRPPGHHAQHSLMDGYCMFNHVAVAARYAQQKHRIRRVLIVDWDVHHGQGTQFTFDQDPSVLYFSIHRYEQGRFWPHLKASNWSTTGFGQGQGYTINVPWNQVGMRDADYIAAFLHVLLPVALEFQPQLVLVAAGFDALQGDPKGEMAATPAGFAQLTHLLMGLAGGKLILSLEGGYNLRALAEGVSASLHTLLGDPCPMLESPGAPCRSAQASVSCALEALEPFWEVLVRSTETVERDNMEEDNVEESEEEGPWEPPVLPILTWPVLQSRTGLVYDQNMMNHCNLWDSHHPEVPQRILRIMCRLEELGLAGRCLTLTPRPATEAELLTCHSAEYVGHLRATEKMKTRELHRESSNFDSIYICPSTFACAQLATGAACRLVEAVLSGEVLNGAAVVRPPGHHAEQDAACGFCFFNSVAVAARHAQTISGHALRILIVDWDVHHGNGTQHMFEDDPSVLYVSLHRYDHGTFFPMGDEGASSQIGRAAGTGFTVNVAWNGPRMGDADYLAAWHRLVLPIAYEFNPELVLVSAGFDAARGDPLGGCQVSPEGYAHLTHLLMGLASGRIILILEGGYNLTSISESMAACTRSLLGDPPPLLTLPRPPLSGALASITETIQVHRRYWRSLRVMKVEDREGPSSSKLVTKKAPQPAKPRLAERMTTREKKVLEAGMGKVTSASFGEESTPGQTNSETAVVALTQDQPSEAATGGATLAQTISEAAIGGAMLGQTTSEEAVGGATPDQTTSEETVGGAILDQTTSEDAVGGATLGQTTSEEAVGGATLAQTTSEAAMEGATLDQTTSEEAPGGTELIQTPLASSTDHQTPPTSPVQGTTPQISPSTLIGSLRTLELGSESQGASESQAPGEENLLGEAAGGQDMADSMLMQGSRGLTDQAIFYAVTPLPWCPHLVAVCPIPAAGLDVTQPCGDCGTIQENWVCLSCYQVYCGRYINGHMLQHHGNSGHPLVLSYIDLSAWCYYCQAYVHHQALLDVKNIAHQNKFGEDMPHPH
Attribute Measured: IC50 (µM)
Give bare numbers, in µM.

Name the recorded IC50 of `COc1cc2c(cc1OCc1ccc(C(=O)Nc3ccccc3N)cc1)CC[C@@H]1[C@H]3CC[C@@H](O)[C@]3(C)CC[C@@H]21` , assay system Protein deacetylase HDAC6 (Homo sapiens).
0.12
